System: MDA-MB-231 breast
protocol_summary: NCI tumour cell line growth inhibition, 48 h
measured_endpoint: TGI

- compound: "C/C(CC(O)(C(F)(F)Cl)C(F)(F)Cl)=N\\Nc1ccccc1"
  measured_endpoint: "TGI"
  reported_value: "> 100 µM"
- compound: "Cc1cc(C)c2c(=O)cc(-c3ccc(F)cc3)[nH]c2n1"
  measured_endpoint: "TGI"
  reported_value: "> 100 µM"
- compound: "N#Cc1nc(N)c(C#N)[nH]1"
  measured_endpoint: "TGI"
  reported_value: "> 100 µM"
- compound: "Clc1ccc(-c2cn3c(nc4ccccc43)c(/C=C/c3cccs3)n2)cc1"
  measured_endpoint: "TGI"
  reported_value: "> 100 µM"
- compound: "Nc1ccc(-c2nnc(-c3c(Cl)c(Cl)c(Cl)c(Cl)c3-c3nc4ccc(C(=O)c5ccccc5)cc4[nH]3)o2)cc1"
  measured_endpoint: "TGI"
  reported_value: "55.4 µM"
- compound: "Oc1c(Nc2ccccc2)cc2c3c1N=NC=3CCN=2"
  measured_endpoint: "TGI"
  reported_value: "> 100 µM"
- compound: "CC1(C)CCCCC1/C=C/C(CC(O)(C(F)(F)F)C(F)(F)F)=N\\Nc1ccc([N+](=O)[O-])cc1[N+](=O)[O-] (stereo not drawn)"
  measured_endpoint: "TGI"
  reported_value: "9.62 µM"
- compound: "CSc1nc(SC)c2c(C)cn(Cc3ccccc3)c2n1"
  measured_endpoint: "TGI"
  reported_value: "> 100 µM"
- compound: "C=CC(Br)(CBr)CCC1OC1(C)C (stereo not drawn)"
  measured_endpoint: "TGI"
  reported_value: "24.6 µM"
- compound: "CCOC(=O)c1sc2c(c1OC(=O)c1ccc(Cl)cc1Cl)c(=O)n(-c1ccccc1)c(=S)n2-c1ccccc1"
  measured_endpoint: "TGI"
  reported_value: "> 90.8 µM"
- compound: "c1ccc(C2C3=C(c4ccccc4CC3)N3c4cc5nc6ccccc6nc5cc4NC34CCCCC24)cc1 (stereo not drawn)"
  measured_endpoint: "TGI"
  reported_value: "> 10 µM"
- compound: "CCOC(=O)C(CC(C)C)NC(=O)C(N)Cc1ccc(N(CCCl)CCCl)cc1 (stereo not drawn)"
  measured_endpoint: "TGI"
  reported_value: "32.3 µM"
- compound: "Clc1ccc(Nc2ncnc3ccccc23)cc1"
  measured_endpoint: "TGI"
  reported_value: "> 100 µM"

====

List of TGI values.
System: KM12 colon
protocol_summary: NCI tumour cell line growth inhibition, 48 h

- compound: "O=c1n(Cc2ccccc2)c2ccccc2n1CC1CS1 (stereo unspecified)"
  TGI: "> 100 µM"
- compound: "O=C(c1ccccc1)c1ccc(N2C(=O)/C(=C/c3cccc([N+](=O)[O-])c3)N=C2c2ccccc2)c(N2C(=O)/C(=C/c3cccc([N+](=O)[O-])c3)N=C2c2ccccc2)c1"
  TGI: "> 100 µM"
- compound: "Cc1ccc(C)n1-n1c(Cc2ccc(Cl)cc2)n[nH]c1=O"
  TGI: "> 100 µM"
- compound: "CNc1cccc(-c2cc(=O)c3cc4c(cc3[nH]2)OCO4)c1"
  TGI: "> 24.7 µM"
- compound: "COc1ccc(/C=C2\\N=C(N3CCOCC3)NC2=O)cc1"
  TGI: "> 100 µM"
- compound: "Cc1ccc(C)c(N2C(=O)C(=O)C(c3nc4ccccc4s3)C(=O)C2=O)c1"
  TGI: "> 100 µM"

====

Tested on: SK-MEL-5 melanoma
protocol_summary: NCI tumour cell line growth inhibition, 48 h
List of TGI values.
measured_endpoint: TGI

- compound: "CC1=N/C(=C\\c2ccc(N)cc2)C(=O)N1Nc1nnc(NN2C(=O)/C(=C/c3ccc(N)cc3)N=C2C)c2ccccc12"
  reported_value: "> 100 µM"
- compound: "COC(=O)CCC(=O)C(CC(=O)OC)C(=O)CCC(=O)NCCc1ccccc1 (stereo not given)"
  reported_value: "> 100 µM"
- compound: "CC1(C)CC(=O)c2c(nc3c(ccc4ccccc43)c2-c2ccc(NC(=O)CCCCCCCCC(=O)Nc3ccc(-c4c5c(nc6c4ccc4ccccc46)CC(C)(C)CC5=O)cc3)cc2)C1"
  reported_value: "> 100 µM"
- compound: "CCc1nc2c(n1CC)C(=O)c1ccccc1C2=O"
  reported_value: "> 10 µM"
- compound: "NC(=S)Nc1c(S(N)(=O)=O)cc(S(N)(=O)=O)c(Cl)c1Cl"
  reported_value: "> 100 µM"

====

Tested on: SF-539 CNS
protocol_summary: NCI tumour cell line growth inhibition, 48 h

- given_smiles: "COc1ccccc1NC(=S)NNC(=O)c1cc(-c2ccccc2)nc2ccccc12"
  TGI: "28.1 µM"
- given_smiles: "O=P1(O)c2ccccc2CSCc2ccccc21"
  TGI: "> 100 µM"
- given_smiles: "COc1ccc2cc(NC(=O)Nn3cnnc3)ccc2c1"
  TGI: "> 100 µM"

====

System: SK-MEL-5 melanoma
protocol_summary: NCI tumour cell line growth inhibition, 48 h
measured_endpoint: log10 TGI (log10 of the value in µM)

- molecule: "c1ccc2c(CNCCCN3CCN(CCCNCc4cccc5ccccc45)CC3)cccc2c1"
  log10 TGI: 0.50
- molecule: "O=C(CSc1nc(-c2ccccc2)c(-c2ccccc2)[nH]1)N/N=C/c1ccc([N+](=O)[O-])cc1"
  log10 TGI: 1.49
- molecule: "C=CC(Br)(CBr)CCC1OC1(C)C (centres undefined)"
  log10 TGI: 1.44
- molecule: "Cc1ccc(S(=O)OC2c3ccccc3Cc3ccccc32)cc1 (centres undefined)"
  log10 TGI: 1.57
- molecule: "Cc1ccc(S(=O)(=O)NN=C2C(C)CC(C(C)(C)C)CC2C)cc1 (centres undefined)"
  log10 TGI: 1.50
- molecule: "Nc1n[nH]c2ccc([C@H]3[C@@H]4C5CCC(C5)[C@@H]4c4c(ccc5[nH]ncc45)N3S(=O)(=O)C3CC3)cc12 (some centres undefined)"
  log10 TGI: 0.11
- molecule: "CN(CCNc1ccc(C(=N)N)cc1)c1ccc(C(=N)N)cc1"
  log10 TGI: 1.45
- molecule: "Cc1cc(C)c2c(=O)cc(-c3ccccc3)[nH]c2c1"
  log10 TGI: 1.49

====

List of TGI values.
Tested on: NCI-H226 lung
protocol_summary: NCI tumour cell line growth inhibition, 48 h

- compound: "O=c1n(Cc2ccccc2)c2ccccc2n1CC1CS1 (stereo not given)"
  TGI: "> 100 µM"
- compound: "CCN1CCC(O)(/C=C/c2cccc(C)c2)C(C(=O)/C=C/c2cccc(C)c2)C1 (stereo not given)"
  TGI: "5.89 µM"
- compound: "CCCC(c1cc(C(C)(C)C)c(O)cc1C)c1cc(C(C)(C)C)c(O)cc1C"
  TGI: "4.53 µM"
- compound: "CCN(CC)CCOc1ccc(N2Cc3cc(OC)c(OC)cc3C2=O)cc1"
  TGI: "> 100 µM"
- compound: "CCCCN(CCCC)C(=O)C(=O)C(C(=O)C(=O)OC)c1nc2ccccc2o1 (stereo not given)"
  TGI: "> 100 µM"
- compound: "C#CCOCCCC(=O)O"
  TGI: "> 100 µM"
- compound: "COc1cc2c(OC)c3cc(C)oc(=O)c3c(O)c2c(O)c1-c1c(OC)cc2c(OC)c3cc(C)oc(=O)c3c(O)c2c1O"
  TGI: "38.2 µM"
- compound: "Nc1ccc(N=Nc2ccc(-c3ccc(N=Nc4c(S(=O)(=O)O)cc5cc(S(=O)(=O)O)c(N=Nc6ccc([N+](=O)[O-])cc6)c(N)c5c4O)cc3)cc2)c2cc(S(=O)(=O)O)ccc12"
  TGI: "> 100 µM"
- compound: "Cc1ccc(C2=NN=C3C(c4ccccc4)=Nc4ccccc4N3C2)cc1"
  TGI: "> 100 µM"
- compound: "NS(=O)(=O)c1ccc(N=Nc2c(O)[nH]c3cccc(CCc4ccncc4)c23)cc1"
  TGI: "> 25 µM"
- compound: "O=C([CH-]C(=O)c1ccccc1)c1ccccc1.O=C([CH-]C(=O)c1ccccc1)c1ccccc1.[CH2-]CCC.[CH2-]CCC.[Sn+4]"
  TGI: "0.938 µM"
- compound: "COc1ccc(-c2cc(=O)c3cc4c(cc3[nH]2)OCO4)c(OC)c1"
  TGI: "> 100 µM"
- compound: "COC(=O)CCC(=O)C(CC(=O)OC)C(=O)CCC(=O)NCCc1ccccc1 (stereo not given)"
  TGI: "> 100 µM"
- compound: "O=C1CCN(CCC(F)(F)C(F)(F)C(F)(F)C(F)(F)F)C(=S)N1"
  TGI: "> 100 µM"
- compound: "O=C(Nn1c(-c2ccccc2)nc2ccccc2c1=O)c1ccc([N+](=O)[O-])cc1"
  TGI: "> 100 µM"

====

Test system: NCI-H460 lung
protocol_summary: NCI tumour cell line growth inhibition, 48 h

- compound: "Cc1cc(C)c(S(=O)(=O)N(CCCCCCN)OCCCON(CCCCCCN)S(=O)(=O)c2c(C)cc(C)cc2C)c(C)c1"
  TGI: "3.07 µM"
- compound: "CC1OC(n2ccc3ccc([N+](=O)[O-])cc32)C(O)C(O)C1O (stereo unspecified)"
  TGI: "> 100 µM"
- compound: "COC(=O)Nc1nc2ccc(C(=O)C3CC3)cc2[nH]1"
  TGI: "20.7 µM"
- compound: "N#CC(NNC(=O)Cc1ccccc1)c1ccc(O)cc1 (stereo unspecified)"
  TGI: "> 100 µM"
- compound: "CCCCN(CCCC)C(=O)C(=O)C(C(=O)C(=O)OC)c1nc2ccccc2o1 (stereo unspecified)"
  TGI: "> 100 µM"
- compound: "Brc1ccc2[nH]cc([C@@H]3CN[C@@H](c4c[nH]c5ccc(Br)cc45)CN3)c2c1"
  TGI: "24.4 µM"
- compound: "ClCc1nnc2n1-c1ccc(Cl)cc1SC2"
  TGI: "14 µM"
- compound: "NS(=O)(=O)c1ccc(N=Nc2c(O)[nH]c3cccc(CCc4ccncc4)c23)cc1"
  TGI: "> 25 µM"
- compound: "Cc1ccc(C)n1-n1c(Cc2ccc(Cl)cc2)n[nH]c1=O"
  TGI: "> 100 µM"
- compound: "COc1ccc(-c2nc(SCC(=O)N/N=C/c3ccc([N+](=O)[O-])cc3)[nH]c2-c2ccc(OC)cc2)cc1"
  TGI: "45.8 µM"
- compound: "CCN(CC)CCOc1ccc(N2Cc3cc(OC)c(OC)cc3C2=O)cc1"
  TGI: "> 100 µM"
- compound: "Cn1c(=O)oc2cc(C(=O)CN3CCN(Cc4ccc5c(c4)OCO5)CC3)c(Cl)cc21"
  TGI: "> 100 µM"
- compound: "O=C(Nn1c(-c2ccccc2)nc2ccccc2c1=O)c1ccc([N+](=O)[O-])cc1"
  TGI: "> 100 µM"
- compound: "CC(=O)OC12c3ccccc3C(c3ccccc31)C1C(=O)N(Nc3ccccc3)C(=O)C12 (stereo unspecified)"
  TGI: "> 100 µM"
- compound: "CC[C@H](C)[C@H](NC(=O)[C@H](Cc1ccc(O)cc1)NCC(F)(F)F)C(=O)OC(C)(C)C"
  TGI: "14.1 µM"
- compound: "CNC(=S)N/N=C(\\C)c1cc(OC)c(OC)cc1O"
  TGI: "> 100 µM"
- compound: "CC(C)c1ccc2c(c1)CCC1C(C)(CN)CCCC21C (stereo unspecified)"
  TGI: "2.6 µM"
- compound: "CO[C@@H]1[C@H](N(C)C(=O)c2ccccc2)C[C@@H]2O[C@]1(C)n1c3ccccc3c3c4c(c5c6ccccc6n2c5c31)C(=O)NC4=O"
  TGI: "> 100 µM"
- compound: "CCOC(=O)c1cc2c(OC)cc(OC)cc2oc1=O"
  TGI: "> 100 µM"
- compound: "CCN1CCC(O)(/C=C/c2cccc(C)c2)C(C(=O)/C=C/c2cccc(C)c2)C1 (stereo unspecified)"
  TGI: "4.64 µM"
- compound: "Fc1ccc(-c2nn3c(COc4ccccc4Cl)nnc3s2)cc1Oc1ccccc1"
  TGI: "> 100 µM"
